Values were extracted from paper PMC11157048.

# experiment.summary: Pharmacokinetics of aumolertinib and HAS-719 in SD rats
# conditions: Sprague-Dawley, rat, plasma, po, 11 mg/kg, Vz/F, telmisartan 8 mg/kg oral 0.5 h before aumolertinib 11 mg/kg oral (Tel + Aum)
measurement.label: Vd/F (L/kg)

- compound.string: "C=CC(=O)Nc1cc(Nc2nccc(-c3cn(C4CC4)c4ccccc34)n2)c(OC)cc1N(C)CCN(C)C"
  measurement.label: "Vd/F"
  result.units: "L/kg"
  number: 582

###

# experiment.summary: Pharmacokinetics of aumolertinib and HAS-719 in SD rats
# conditions: Sprague-Dawley, rat, plasma, po, 11 mg/kg, Vz/F, carvedilol 5 mg/kg oral 0.5 h before aumolertinib 11 mg/kg oral (Car + Aum)
measurement.label: Vd/F (L/kg)

- compound: "C=CC(=O)Nc1cc(Nc2nccc(-c3cn(C4CC4)c4ccccc34)n2)c(OC)cc1N(C)CCN(C)C [Aumolertinib]"
  number: 375

###

# experiment.summary: Pharmacokinetics in AAV8-CYP3A4*12 mice
# conditions: C57BL/6J, mouse, serum, po, 16.5 mg/kg, Cmax, aumolertinib 16.5 mg/kg oral alone (Aum)
measurement.label: Cmax (ng/mL)

- compound.string: "C=CC(=O)Nc1cc(Nc2nccc(-c3cn(C4CC4)c4ccccc34)n2)c(OC)cc1N(C)CCN(C)C"
  measurement.label: "Cmax"
  result.units: "ng/mL"
  number: 194

###

# experiment.summary: Pharmacokinetics of aumolertinib and HAS-719 in SD rats
# conditions: Sprague-Dawley, rat, plasma, po, 11 mg/kg, Tmax, telmisartan 8 mg/kg oral 0.5 h before aumolertinib 11 mg/kg oral (Tel + Aum)

- compound.string: "C=CC(=O)Nc1cc(Nc2nccc(-c3cn(C4CC4)c4ccccc34)n2)c(OC)cc1N(C)CCN(C)C"
  Tmax (h): 8.67
